For each of the variants below, state its protein stability index.
B1: TNNI2 (parent)
chain: DWRKNIEEKSGMEGRKKMFESES

- Variants of: B1
- method: protein stability index of a GFP-peptide fusion (GPS, HEK-293T) (PSI 1-6); higher = more stable;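 note: lentivirally expressed fusions sorted by FACS into six bins by GFP to DsRed ratio, PSI derived from sequencing read proportions per bin multiplied by bin number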
- condition: c terminus: native
Please reply with the number alone, leaving off any unit.

protein stability index reported for this variant W2K : 1.95

Reported protein stability index of M12H : 2.42

For this variant ( G14T ), measured protein stability index is 1.41

// E22T : protein stability index value = 5.25

Looking up R15L , I found its protein stability index recorded as 2.56

protein stability index reading for K17R : 1.97

The reported protein stability index of the variant D1G was 2.28

Entry I6K ; protein stability index = 2.23

protein stability index for E20C is 2.67

response.value for D1H (field: protein stability index) = 2.27

Measured protein stability index, R3D : 2.63

Value of protein stability index reported for the variant G11L is 2.77

The reported value for K16S in terms of protein stability index is 1.98

protein stability index measured on E7I = 1.75

# protein stability index of S23K = 2.63

Entry M12Q , protein stability index reported as 2.02

The measured protein stability index associated with M18V reads 2.39

protein stability index in this record for E22N : 4.44

Lab book: protein stability index of E8S noted as 1.99

Consider E7Y . Its measured protein stability index is 2.12

Given item E20W , the value recorded as its protein stability index is 3.71

For S21V the variant record lists protein stability index as 2.39

Data credit: the supplement of paper PMC10567573
